experiment: Biodistribution experiments in normal mice after i.v. injection; format: in vivo; conditions: male, ddY, mouse, in vivo, iv, total radioactivity, mice, i.v., 60 min after injection, mean (SD); read-out: Biodistribution of radioactivity, Spleen
Where a SMILES comes first, the peptide text is derived from it. [ ]: non-standard residue; d: D form. The star is where a group is joined. DOTA = O=C(O)CN1CCN(CC(=O)O)CCN(CC(=O)*)CCN(CC(=O)O)CC1
Recorded endpoint: tissue uptake dose at 1 h (%ID)
Provide the reading as a plain figure in %ID.

Record request: tissue uptake dose at 1 h value, item O=C(O)C[C@@H](NC(=O)[C@@H](CC(=O)O)NC(=O)[C@@H](CC(=O)O)NC(=O)[C@@H](CC(=O)O)NC(=O)[C@@H](CC(=O)O)NC(=O)[C@@H](CC(=O)O)NC(=O)[C@@H](CC(=O)O)NC(=O)[C@@H](CC(=O)O)NC(=O)[C@@H](CC(=O)O)NC(=O)[C@@H](CC(=O)O)NC(=O)[C@@H](CC(=O)O)NC(=O)CN1CCN(CC(=O)O)CCN(CC(=O)O)CCN(CC(=O)O)CC1)C(=O)O [^67Ga-DOTA-(D-Asp)11, metal not drawn] ({DOTA}-[dD][dD][dD][dD][dD][dD][dD][dD][dD][dD][dD]-OH) 0.13
